Values from the supplement of paper PMC9262897

Attribute: growth
# Test system: E. coli TESEC Mtb DapB
# experiment description: growth (OD600 after 10 h); higher = more growth (less inhibition)
# reported conditions: arabinose induction (level): High; compound 0.1 mM; raw OD600 reference: median of DMSO wells […], cell-free background 0.041
Structures can show the parent of a compound that is named as a salt.
Give the figure by itself; no unit, no explanation.

These solved cases illustrate the format of a correct answer.
>>> print(df.to_string())
                                   compound  reported_result
0  N=C(N)c1ccc(OCCCCCOc2ccc(C(=N)N)cc2)cc1 [Pentamidine isethionate]            0.224
1  Nc1ccn([C@@H]2O[C@H](CO)[C@@H](O)[C@@H]2O)c(=O)n1 [Cytarabine]            0.224
2  CCN[C@H]1C[C@H](C)S(=O)(=O)c2sc(S(N)(=O)=O)cc21 [Dorzolamide hydrochloride]            0.199
3  COc1cnc(NS(=O)(=O)c2ccc(N)cc2)nc1 [Sulfameter]            0.207
4  Cc1ccc(/C(=C\CN2CCCC2)c2ccccn2)cc1 [Triprolidine hydrochloride]            0.165
5  COC(=O)Nc1nc2cc([S+]([O-])c3ccccc3)ccc2[nH]1 (centres undefined) [Oxfendazol]            0.173
6  O=C1CN2Cc3c(ccc(Cl)c3Cl)N=C2N1 [Anagrelide]            0.198
7      CN1C(=O)OC(C)(C)C1=O [Trimethadione]            0.193

Switching to the query record.
For reference, reported growth for CCOc1ccc2c(c1)C(C)=CC(C)(C)N2 [Ethoxyquin] stands at 0.196

----------
# Test system: E. coli TESEC Mtb Alr
# experiment description: growth (OD600 after 10 h); higher = more growth (less inhibition)
# reported conditions: arabinose 10000000 nM; compound 0.1 mM; raw OD600 reference: median of DMSO wells […], cell-free background 0.052
Counter-ions that a name gives are not always drawn.
quantity: growth
Give the figure by itself; no unit, no explanation.

compound	tested target	growth
N=c1nc(N2CCCCC2)cc(N)n1O	E. coli TESEC Mtb Alr	0.379
Nc1nc2n[nH]nc2c(=O)[nH]1	E. coli TESEC Mtb Alr	0.245
CO/N=C(\C(=O)N[C@@H]1C(=O)N2C(C(=O)O)=C(COC(C)=O)CS[C@H]12)c1csc(N)n1 [Cefotaxime sodium salt]	E. coli TESEC Mtb Alr	0.0529
CN1CCC(=C2c3ccccc3CCc3sccc32)CC1 [Pizotifen malate]	E. coli TESEC Mtb Alr	0.132
COc1cnc(NS(=O)(=O)c2ccc(N)cc2)nc1	E. coli TESEC Mtb Alr	0.336
CC1CS(=O)(=O)CCN1/N=C/c1ccc([N+](=O)[O-])o1 (centres undefined)	E. coli TESEC Mtb Alr	0.0644

For reference, reported growth for O=C1CN2Cc3c(ccc(Cl)c3Cl)N=C2N1 [Anagrelide] stands at 0.368

For reference, reported growth for Brc1c(NC2=NCCN2)ccc2nccnc12 [Brimondine L-Tartrate] stands at 0.343

For reference, reported growth for CCCCCN(C)CCC(O)(P(=O)(O)O)P(=O)(O)O [Ibandronate sodium] stands at 0.358

For reference, reported growth for CC(C)(C#N)c1cc(Cn2cncn2)cc(C(C)(C)C#N)c1 stands at 0.321

For reference, reported growth for CN(C)c1ccc(O)c2c1C[C@H]1C[C@H]3[C@H](N(C)C)C(=O)C(C(N)=O)=C(O)[C@@]3(O)C(=O)C1=C2O [Minocycline hydrochloride] stands at 0.0637

For reference, reported growth for CC(C)(Oc1ccc(C2CC2(Cl)Cl)cc1)C(=O)O (centres undefined) [Ciprofibrate] stands at 0.312

For reference, reported growth for O=c1[nH]c(=O)n(C2CCCO2)cc1F (centres undefined) stands at 0.346

For reference, reported growth for COc1cc(NC(C)CCCN)c2ncccc2c1 (centres undefined) [Primaquine diphosphate] stands at 0.08

For reference, reported growth for Fc1ccc([C@@H]2CCNC[C@H]2COc2ccc3c(c2)OCO3)cc1 [Paroxetine Hydrochloride] stands at 0.134

For reference, reported growth for CC1(C)S[C@@H]2[C@H](NC(=O)[C@H](NC(=O)N3CCNC3=O)c3ccccc3)C(=O)N2[C@H]1C(=O)O [Azlocillin sodium salt] stands at 0.361

For reference, reported growth for C=CC[N@@+]12CC[C@@]34c5ccccc5N5/C=C6/[C@H]7C[C@H]8[C@@]9(CC[N@@+]8(CC=C)C/C7=C/CO)c7ccccc7N(/C=C(/[C@@H](C[C@@H]31)/C(=C\CO)C2)[C@H]54)[C@@H]69 [Alcuronium chloride] stands at 0.351

For reference, reported growth for CC[C@@]1(O)C(=O)OCc2c1cc1n(c2=O)Cc2cc3c(CN(C)C)c(O)ccc3nc2-1 stands at 0.269

For reference, reported growth for Cn1cnc([N+](=O)[O-])c1Sc1ncnc2[nH]cnc12 stands at 0.175

For reference, reported growth for Cc1cccc(Nc2ccccc2C(=O)O)c1C stands at 0.149

For reference, reported growth for NCCC[C@H](N)CC(=O)N[C@H]1CNC(=O)[C@H]([C@H]2C[C@H](O)NC(N)=N2)NC(=O)/C(=C/NC(N)=O)NC(=O)[C@H](CO)NC(=O)[C@H](CO)NC1=O [Viomycin sulfate] stands at 0.0681

For reference, reported growth for Cc1c(C)c2c(c(C)c1O)CCC(C)(C(=O)O)O2 (centres undefined) stands at 0.316

For reference, reported growth for Clc1ccc(Cn2c(CN3CCCC3)nc3ccccc32)cc1 [Clemizole hydrochloride] stands at 0.185

For reference, reported growth for COc1ccccc1N1CCN(CC(O)COc2cccc3ccccc23)CC1 (centres undefined) [Naftopidil dihydrochloride] stands at 0.0524

For reference, reported growth for Cc1ccc(NC(=O)c2ccc(CN3CCN(C)CC3)cc2)cc1Nc1nccc(-c2cccnc2)n1 stands at 0.241

For reference, reported growth for C#C[C@]1(O)CC[C@H]2[C@@H]3CCC4=CC(=O)CC[C@@H]4[C@H]3CC[C@@]21CC [Norgestrel-(-)-D] stands at 0.331

For reference, reported growth for CCN(CC)CCOCCOC(=O)C1(c2ccccc2)CCCC1 [Carbetapentane citrate] stands at 0.288

For reference, reported growth for CN(C)CCOC(=O)C(c1ccccc1)C1(O)CCCC1 (centres undefined) [Cyclopentolate hydrochloride] stands at 0.316

----------
# Tested on: E. coli TESEC Mtb Alr
# experiment description: growth (OD600 after 10 h); higher = more growth (less inhibition)
# reported conditions: arabinose 1000 nM; compound 0.1 mM; raw OD600 reference: median of DMSO wells 0.294, cell-free background 0.041
Structures can show the parent of a compound that is named as a salt.
Attribute: growth

These solved cases illustrate the format of a correct answer.
compound	growth
CC12CC3CC(C)(C1)CC(N)(C3)C2 [Memantine Hydrochloride]	0.207
S=c1[nH]cnc2nc[nH]c12	0.0619
CN1CCCCC1CCN1c2ccccc2Sc2ccc([S+](C)[O-])cc21 (stereo not drawn) [Mesoridazine besylate]	0.24
CCC(=O)O[C@]1(C(=O)SCF)[C@H](C)C[C@H]2[C@@H]3C[C@H](F)C4=CC(=O)C=C[C@]4(C)[C@@]3(F)[C@@H](O)C[C@@]21C [Fluticasone propionate]	0.29
CC1Cc2ccccc2N1NC(=O)c1ccc(Cl)c(S(N)(=O)=O)c1 (stereo not drawn) [Indapamide]	0.278

For reference, reported growth for CCN1CCC[C@H]1CNC(=O)c1c(OC)ccc(Br)c1OC [Remoxipride Hydrochloride] stands at 0.304

For reference, reported growth for CC1(C)O[C@@H]2C[C@H]3[C@@H]4CCC5=CC(=O)CC[C@]5(C)[C@@]4(F)[C@@H](O)C[C@]3(C)[C@]2(C(=O)CCl)O1 [Halcinonide] stands at 0.283

For reference, reported growth for COC(=O)CCc1ccc(OCC(O)CNC(C)C)cc1 (stereo not drawn) [Esmolol hydrochloride] stands at 0.295

For reference, reported growth for Clc1ccc(Cn2c(CN3CCCC3)nc3ccccc32)cc1 [Clemizole hydrochloride] stands at 0.0807

For reference, reported growth for CC(C)(C#N)c1cc(Cn2cncn2)cc(C(C)(C)C#N)c1 stands at 0.274

For reference, reported growth for NC12CC3CC(CC(C3)C1)C2 [Adamantamine fumarate] stands at 0.299

For reference, reported growth for NC[C@H]1CC[C@H](C(=O)O)CC1 stands at 0.293

For reference, reported growth for CCCCOc1ccc(CC(=O)NO)cc1 stands at 0.247

For reference, reported growth for C[N+](C)(C)CCOC(N)=O stands at 0.309
